Measured values drawn from ChEMBL document CHEMBL1135662 for this set.

Test system: K562
Assay: Cytotoxicity against cell line K562i/S9 and pgp determined by MTT test
Type: functional, cell-based
Conditions: Homo sapiens
Counter-ions that a name gives are not always drawn.
Collected IC50 values appear next to each entry.

# compound, IC50
records = [
    ("COc1ccc(CCN(C)CCCC(C#N)(c2ccc(OC)c(OC)c2)C(C)C)cc1OC (stereo not drawn) [VERAPAMIL HYDROCHLORIDE]", "100 µM"),
    ("COc1ccc(CNCCN(C/C=C(\\C)CCC=C(C)C)Cc2ccc(OC)c(OC)c2)cc1OC.Cl", "125 µM"),
]

Q: Fill in the blank: the reported IC50 of `COc1ccc(CNCCN(C/C=C(\C)CC/C=C(\C)CC/C=C(\C)CC/C=C(\C)CC/C=C(\C)CC/C=C(\C)CC/C=C(\C)CC/C=C(\C)CCC=C(C)C)Cc2ccc(OC)c(OC)c2)cc1OC` is ____.
Ans: 250 µM
